Hello, the source for this data is patent US20230113037A1, in case you need it.

study_system: AHR (Homo sapiens)
Construct: U87 MG glioblastoma cells (ATCC #HTB-14) endogenously expressing AHR; endogenous in cells; host or cells: U87 MG glioblastoma cells (ATCC #HTB-14)
Sequence (P35869 11-848): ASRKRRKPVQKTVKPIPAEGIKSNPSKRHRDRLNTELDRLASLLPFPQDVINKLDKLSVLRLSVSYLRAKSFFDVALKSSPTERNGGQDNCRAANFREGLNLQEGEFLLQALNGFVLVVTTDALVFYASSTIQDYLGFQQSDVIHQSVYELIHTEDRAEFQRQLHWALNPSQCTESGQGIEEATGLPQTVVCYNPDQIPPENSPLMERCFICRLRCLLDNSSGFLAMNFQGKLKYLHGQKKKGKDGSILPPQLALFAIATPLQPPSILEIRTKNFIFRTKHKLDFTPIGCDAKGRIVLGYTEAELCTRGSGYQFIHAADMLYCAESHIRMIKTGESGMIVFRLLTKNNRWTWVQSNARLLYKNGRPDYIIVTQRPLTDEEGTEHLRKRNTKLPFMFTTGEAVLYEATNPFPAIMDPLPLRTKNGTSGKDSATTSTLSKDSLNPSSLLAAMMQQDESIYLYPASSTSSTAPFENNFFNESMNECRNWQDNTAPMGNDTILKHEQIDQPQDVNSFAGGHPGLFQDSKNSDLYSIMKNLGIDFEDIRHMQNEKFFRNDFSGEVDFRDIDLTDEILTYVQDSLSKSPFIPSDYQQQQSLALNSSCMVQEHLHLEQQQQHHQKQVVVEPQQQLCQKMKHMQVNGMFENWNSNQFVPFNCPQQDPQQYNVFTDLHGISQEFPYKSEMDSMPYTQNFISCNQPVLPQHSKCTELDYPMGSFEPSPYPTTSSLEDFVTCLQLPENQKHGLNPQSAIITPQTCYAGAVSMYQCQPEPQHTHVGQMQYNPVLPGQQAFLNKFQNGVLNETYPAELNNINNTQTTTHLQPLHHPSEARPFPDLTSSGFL
assay_summary: In vitro assay 1: antagonism in human cell line (AHR transactivation, firefly luciferase reporter, kynurenic acid prestimulated)
Type: cell-based
condition_notes: AHR Antagonism Human IC50 [M]
endpoint_name: IC50 (M)

Observe how each entry below is paired with its result.
INSERT INTO results (smiles_representation, study_system, endpoint_name, data_value) VALUES
  ('COc1cccc(-c2nc3c4ccccc4nc(N[C@@H](Cc4ccc(O)cc4)C(N)=O)n3n2)c1', 'AHR (Homo sapiens)', 'IC50', '1.01e-06'),
  ('Cn1cc(-c2nc3c4cccc(Cl)c4nc(N[C@@H]4CCCCNC4=O)n3n2)cn1', 'AHR (Homo sapiens)', 'IC50', '1.17e-09'),
  ('O=C1NCC[C@H]1Nc1nc2ccccc2c2nc(-c3ccc(Cl)cc3OC(F)F)nn12', 'AHR (Homo sapiens)', 'IC50', '9.3e-09'),
  ('COc1cccc(-c2nc3c4ccccc4nc(NC4(C(N)=O)COC4)n3n2)c1', 'AHR (Homo sapiens)', 'IC50', '4.85e-07');

A. COc1ccc(-c2nc3c4cccc(C(F)(F)F)c4nc(N[C@@H]4CNCCNC4=O)n3n2)cc1
B. COc1cccc(-c2nc3c4cc(C)ccc4nc(N[C@@H]4CCCCNC4=O)n3n2)c1
C. O=C1NCCCC[C@H]1Nc1nc2c(C(F)(F)F)cccc2c2nc(-c3ccc(F)cc3)nn12
D. Cn1cc(-c2nc3c4ccc(Br)cc4nc(N[C@@H]4CCCCNC4=O)n3n2)cn1
Ascending sort, IC50. # output: labels, in the requested order
A, C, B, D
